The values you see were collected from PubChem BioAssay (NCI).

- System: HCT-116 colon
- ASSAY_INFO: NCI tumour cell line growth inhibition, 48 h
REPORTED_ENDPOINT: TGI (µM)
Give the quantity in µM, number only.

Suppose we examine the compound CC(=O)c1cccc(Nc2c3ccccc3nc3occc23)c1 ; what TGI value has been reported?
18.4

Suppose we examine the compound NCCn1ccc(NC(c2ccccc2)(c2ccccc2)c2ccccc2)nc1=O ; what TGI value has been reported?
35.5

Suppose we examine the compound C=C(CN(C)C)C(=O)c1ccc(C)cc1C ; what TGI value has been reported?
13

Suppose we examine the compound COc1cc2c(cc1O)[C@H](C)C(c1ccccc1OC)O2 (some centres undefined) ; what TGI value has been reported?
15.4

Suppose we examine the compound COc1cc(CNc2nc3ccccc3n2Cc2ccccc2)cc(CN2CCOCC2)c1O ; what TGI value has been reported?
41.7

----------
- Test system: OVCAR-3 ovarian
- ASSAY_INFO: NCI tumour cell line growth inhibition, 48 h; in the data active means GI50 below about 0.43 µM; inactive means the rest
Valid outcomes are listed here; reply with one: yes (active), no (inactive)

What did the test return for N=C(N)c1ccc(-c2ccc(-c3cncc4ccccc34)s2)cc1F ?
no

What did the test return for CCOC(=O)/C(=C/c1ccccc1)C(=O)c1ccccc1 ?
no

What did the test return for COc1ccc2c(O)c(/C=C3\N=Nc4ncccc43)oc2c1C[C@H]1CCNC[C@H]1F ?
no

What did the test return for Cc1cc(Nc2cc(CN3CCOCC3)c3nc(C)c(Cc4ccc(Cl)cc4F)n3n2)n[nH]1 ?
no

What did the test return for CC(C)(C)OC(=O)N1CC(Cn2cc(C(F)(F)F)c3c(Cl)ncnc32)C1 ?
no

What did the test return for O=C(C[C@@]1(O)C(=O)Nc2c(Cl)ccc(Cl)c21)c1ccc(C2CC2)cc1 ?
yes

What did the test return for Cc1cc(S(N)(=O)=O)c(S/C(=N\Nc2ccc([N+](=O)[O-])cc2)c2ccc(O)cc2)cc1Cl ?
no

What did the test return for C=C(C)[C@@H]1CC[C@]2(C(=O)Nc3ccccn3)CC[C@]3(C)[C@H](CC[C@@H]4[C@@]5(C)CCCNC(C)(C)[C@@H]5CC[C@]43C)[C@@H]12 ?
no

What did the test return for Cc1cc(O)c(C2=NN(c3ccc(S(N)(=O)=O)cc3)C(c3ccccc3O)C2)cc1Cl (centres undefined) ?
no

----------
- Tested on: SNB-19 CNS
- ASSAY_INFO: NCI tumour cell line growth inhibition, 48 h
REPORTED_ENDPOINT: TGI

Suppose we examine the compound CSC1=C(C#N)C(=O)N(c2ccc(Cl)cc2)C(=O)C1C#N (stereo not given) ; what TGI value has been reported?
> 100 µM

Suppose we examine the compound C=C1C(=O)OC2/C=C(\C)C(=O)CC3OC(C)(C)OC3(C)CC(OC(=O)/C(C)=C/C)C12 (stereo not given) ; what TGI value has been reported?
> 100 µM

Suppose we examine the compound O=C(N[C@@H]1C=CCC[C@@H]1c1ccccc1)OCc1ccccc1 ; what TGI value has been reported?
99.6 µM

Suppose we examine the compound COc1ccc(-c2nn(-c3ccc(NC(=O)Nc4ccc(Cl)c(Cl)c4)cc3)cc2-c2ccncc2)cc1Cl ; what TGI value has been reported?
> 100 µM

Suppose we examine the compound COc1ccc(C2=CC(c3ccc(Oc4ccnc5cc(Cl)ccc45)c(OC)c3)c3c(nc(OC)[nH]c3=O)N2)cc1 (stereo not given) ; what TGI value has been reported?
> 100 µM
